- Test system: COLO 205
- test.name: NCI tumour cell line growth inhibition, 48 h
Activity calls are given as the source filed them. No stated cut-off is given here; in the data, active = GI50 up to about 1.1 µM and inactive = higher.
# GI50 values compiled below

Some entries whose results are on file:
CCc1nnc2sc(-c3ccc(-c4ccc(Cl)cc4Cl)o3)nn12	23.1 µM (inactive)
Cc1c(C)c(C)c(-n2c(=O)n(C)c(=O)n2-n2c(=O)n(C)c(=O)n2-c2c(C)c(C)c(C)c(C)c2C)c(C)c1C	> 100 µM (inactive)
NCCCN(CCCCN(CCCN)Cc1ccc2ccccc2c1)Cc1ccc2ccccc2c1	2.55 µM (inactive)
O=C(CCCn1cnc([N+](=O)[O-])n1)NCCn1ccnc1[N+](=O)[O-]	> 100 µM (inactive)
C=C(C)CN(CC#N)CC(=C)C	> 100 µM (inactive)
COc1cc(OC)c(C2c3cc4c(cc3OC(N3CCCC3)C2C)OCO4)c(OC)c1 (stereo not given)	> 10 µM (inactive)

Then this molecule:
[ask] # return recorded GI50 for entry CC(C)(C)OC(=O)N[C@H]1CC2(C=C(Cl)C(=O)C(Cl)=C2)OC1=O
[reply] 3.97 µM (inactive)

====

- Test system: HT-29
- test.name: NCI tumour cell line growth inhibition, 48 h
Active and inactive are the calls of the source. Rule as the data show it: active = GI50 up to about 1.1 µM and inactive = higher.
Field 'call' accepts active, inactive

CCCCCCCC(CC(=O)NC(CO)C(=O)NC(CO)CC(C)C)OC(=O)CC(CCCCCCC)OC(=O)CC(CCCCCCC)OC1OC(C)C(O)C(OC2OC(C)C(OC(C)=O)C(O)C2O)C1O (stereo not given)	inactive
CC[C@@]1(C)CCC2c3ccc(O)cc3CC[C@H]2C1C (stereo not given in full)	inactive
Cn1c2nc3ccccc3c-2cc2ccccc21 [NEOCRYPTOLEPINE]	inactive
Clc1ccccc1C1=NN(c2ccccc2)C2c3cc(Br)ccc3OCC12 (stereo not given)	inactive
CC1=C(C(=O)Nc2ccccc2C)C(c2ccccc2O)C(C(=O)Nc2ccccc2C)=C(C)N1	inactive
CC(C)(C)OCC1NC(=O)[C@@H]2Cc3c([nH]c4ccccc34)C(C3CCCCC3)N2C1=O (stereo not given in full)	inactive
CCC1(O)C(=O)OCc2c1cc1n(c2=O)Cc2cc3cc(N)ccc3nc2-1 (stereo not given)	active
Cc1cc2c(C=O)n[nH]c2c(C#N)c1C	inactive

[ask] Any idea what this test logged for C[N+](C)(C)CCN[N+]1(C)CCCc2ccccc21 (stereo not given) ?
[reply] inactive

[ask] Any idea what this test logged for CC(C)CCCCCCCCCCCCC(=O)NCC(=O)NC1C(C)OC(Nc2[nH]cnc3ncnc2-3)C(O)C1O (stereo not given) ?
[reply] active

[ask] Any idea what this test logged for COc1cccc(C2c3cc4c(cc3OC(NNS(=O)(=O)c3ccc(C)cc3)C2C)OCO4)c1O (stereo not given) ?
[reply] inactive

[ask] Any idea what this test logged for C/C(=N\NS(=O)(=O)c1ccccc1)c1ccc(Cl)c(Cl)c1 ?
[reply] inactive

[ask] Any idea what this test logged for N=C(N)NCCCC(NCc1c2ccccc2nc2ccccc12)C(=O)O (stereo not given) ?
[reply] inactive

[ask] Any idea what this test logged for Cc1cc(S(=O)(=O)Nc2n[nH]c(-c3ccc(Cl)cc3)n2)c(SSc2cc(Cl)c(C)cc2S(=O)(=O)Nc2n[nH]c(-c3ccc(Cl)cc3)n2)cc1Cl ?
[reply] inactive

[ask] Any idea what this test logged for COc1cc([N+](=O)[O-])cc2c1NC(=O)C2(C)SC (stereo not given) ?
[reply] inactive

[ask] Any idea what this test logged for Nc1nc2ccc3ccccc3c2[nH]1 ?
[reply] inactive

[ask] Any idea what this test logged for Cc1cc2c(c(C(=O)O)c1C)-c1cccc(F)c1C2=O ?
[reply] inactive

[ask] Any idea what this test logged for COC1=C(N=[N+]=[N-])C(=O)c2ncccc2C1=O ?
[reply] inactive

[ask] Any idea what this test logged for O=C1c2cccc(O)c2C(=O)c2c(O)cccc21 ?
[reply] inactive

[ask] Any idea what this test logged for N#CC(C(=N/O)/C(=N\O)C(C#N)c1ccccc1)c1ccccc1 (stereo not given) ?
[reply] inactive

All values here come from ChEMBL document CHEMBL1201862.
